- tgt: KRAS G12S (Homo sapiens (Human), UniProt P01116+P62937, G12S)
- Sequence (P01116-2 other isoform, or with tags, fused parts or gaps G12S): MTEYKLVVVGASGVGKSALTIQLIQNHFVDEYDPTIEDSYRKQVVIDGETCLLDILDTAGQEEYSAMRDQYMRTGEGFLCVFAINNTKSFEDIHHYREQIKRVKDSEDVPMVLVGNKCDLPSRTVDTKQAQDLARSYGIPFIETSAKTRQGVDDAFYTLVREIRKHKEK
- Sequence (P62937 whole entry): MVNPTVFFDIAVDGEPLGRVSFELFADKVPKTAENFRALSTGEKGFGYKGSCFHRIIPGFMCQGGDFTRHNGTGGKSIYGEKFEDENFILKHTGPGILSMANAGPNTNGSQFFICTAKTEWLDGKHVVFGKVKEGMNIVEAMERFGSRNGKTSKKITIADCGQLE
- assay.overview: Ras-Raf (BRAF RBD) disruption / FRET / MOA assay, KRAS G12S
- Assay type: biochemical
- experimental.setup: Ras-Raf disruption/FRET/MOA assay; class symbols; read-out: KRAS G12S FRET data IC50
experimental.endpoint: IC50

Observe how each entry below is paired with its result.
| molecule | IC50 |
| --- | --- |
| CO[C@@H](C)c1ncccc1-c1c2c3cc(ccc3n1CC(F)(F)F)-c1csc(n1)C[C@H](NC(=O)[C@@H](COC1CN(C(=O)C#CC(C)(C)N(C)C)C1)C(C)C)C(=O)N1CCC[C@H](N1)C(=O)OCC(C)(C)C2 (atropisomer, axis not shown) | 1000 to 10000 nM |
| C=CC(=O)N1CC[C@H](C(=O)N(C)[C@H](C(=O)N[C@H]2Cc3cccc(c3)-c3ccc4c(c3)c(c(-c3cc(C5CCN(C)CC5)cnc3[C@H](C)OC)n4CC)CC(C)(C)COC(=O)[C@@H]3CCCN(N3)C2=O)C(C)C)C1 (atropisomer, axis not shown) [Example A516] | > 10000 nM |
| CC#CC(=O)N1CC2(CCN2C(=O)N(C)[C@H](C(=O)N[C@H]2Cc3nc(cs3)-c3ccc4c(c3)c(c(-c3cccnc3[C@H](C)OC)n4CC)CC(C)(C)COC(=O)[C@@H]3CCCN(N3)C2=O)C(C)C)C1 (atropisomer, axis not shown) | 100 to 1000 nM |

Exercise: Notebook: pull reported IC50 for KRAS G12S (Homo sapiens (Human), UniProt P01116+P62937, G12S), entry CO[C@@H](C)c1ncccc1-c1c2c3cc(ccc3n1CC(F)(F)F)-c1nnc(o1)C[C@H](NC(=O)[C@H](C(C)C)N(C)C(=O)[C@H]1CCN(C(=O)C#CC(C)(C)N3CCC3)C1)C(=O)N1CCC[C@H](N1)C(=O)OCC(C)(C)C2
Key: 1000 to 10000 nM

====

- Test system: NCI-H358 (K-Ras G12C)
- assay.overview: CellTiter-Glo cell viability assay, NCI-H358
- Type: cell-based, human
- experimental.setup: Homo sapiens, NCI-H358, 120 h, NCI-H358, 5-day treatment; class symbols; read-out: Additional H358 Cell Viability assay data (K-Ras G12C, IC50)
pIC50: −log10 of the molar value.
# pIC50 values compiled below

Observe how each entry below is paired with its result.
| compound | tgt | pIC50 |
| --- | --- | --- |
| CCn1c(-c2cccnc2[C@H](C)OC)c2c3cc(ccc31)-c1cccc(c1)C[C@H](NC(=O)[C@@H](COC1CN(C(=O)C#CC(C)(C)N(C)C(C)C)C1)C(C)C)C(=O)N1CCC[C@H](N1)C(=O)OCC(C)(C)C2 (atropisomer, axis not shown) | NCI-H358 (K-Ras G12C) | > 8.00 |
| C=CC(=O)N1CC[C@H]2[C@@H](C1)CN2C(=O)N(C)[C@H](C(=O)N[C@H]1Cc2nc(cs2)-c2ccc3c(c2)c(c(-c2cccnc2[C@H](C)OC)n3CC)CC(C)(C)COC(=O)[C@@H]2CCCN(N2)C1=O)C(C)C (atropisomer, axis not shown) | NCI-H358 (K-Ras G12C) | 7.00 to 8.00 |
| C=CC(=O)N1C[C@@H](C)N(C(=O)N(C)[C@H](C(=O)N[C@H]2Cc3nc(cs3)-c3ccc4c(c3)c(c(-c3cccnc3[C@H](C)OC)n4CC)CC(C)(C)COC(=O)[C@@H]3CCCN(N3)C2=O)C(C)C)C[C@H]1C (atropisomer, axis not shown) | NCI-H358 (K-Ras G12C) | 7.00 to 8.00 |

Exercise: Notebook: pull reported pIC50 for NCI-H358 (K-Ras G12C), entry C=CC(=O)NC[C@H]1CCN1C(=O)N(C)[C@H](C(=O)N[C@H]1Cc2nc(cs2)-c2ccc3c(c2)c(c(-c2cccnc2[C@H](C)OC)n3CC)CC(C)(C)COC(=O)[C@@H]2CCCN(N2)C1=O)C(C)C (atropisomer, axis not shown)
Key: > 8.00

The values you see were collected from patent US11566007B2.
